Items are presented alongside their recorded melting point.

Before answering, review these 2 worked examples.
item_smiles	melting point
O=C(COc1ccc2oc(=O)ccc2c1)Nc1ccc(F)cc1	206 to 207 °C
O=C(COc1ccc2oc(=O)ccc2c1)NCc1ccccc1	161 to 162 °C

Continue with the next compound.
INPUT: I am curious: what melting point value has been reported for O=C(COc1ccc2oc(=O)ccc2c1)NCc1ccc(F)cc1 ?
OUTPUT: 158 to 159 °C
